Target: NOD2 (Homo sapiens, UniProt Q9HC29)
Construct: host or cells: HEK-293T-derived HEK-Blue NF-kB/SEAP reporter cells
Sequence (Q9HC29 whole entry): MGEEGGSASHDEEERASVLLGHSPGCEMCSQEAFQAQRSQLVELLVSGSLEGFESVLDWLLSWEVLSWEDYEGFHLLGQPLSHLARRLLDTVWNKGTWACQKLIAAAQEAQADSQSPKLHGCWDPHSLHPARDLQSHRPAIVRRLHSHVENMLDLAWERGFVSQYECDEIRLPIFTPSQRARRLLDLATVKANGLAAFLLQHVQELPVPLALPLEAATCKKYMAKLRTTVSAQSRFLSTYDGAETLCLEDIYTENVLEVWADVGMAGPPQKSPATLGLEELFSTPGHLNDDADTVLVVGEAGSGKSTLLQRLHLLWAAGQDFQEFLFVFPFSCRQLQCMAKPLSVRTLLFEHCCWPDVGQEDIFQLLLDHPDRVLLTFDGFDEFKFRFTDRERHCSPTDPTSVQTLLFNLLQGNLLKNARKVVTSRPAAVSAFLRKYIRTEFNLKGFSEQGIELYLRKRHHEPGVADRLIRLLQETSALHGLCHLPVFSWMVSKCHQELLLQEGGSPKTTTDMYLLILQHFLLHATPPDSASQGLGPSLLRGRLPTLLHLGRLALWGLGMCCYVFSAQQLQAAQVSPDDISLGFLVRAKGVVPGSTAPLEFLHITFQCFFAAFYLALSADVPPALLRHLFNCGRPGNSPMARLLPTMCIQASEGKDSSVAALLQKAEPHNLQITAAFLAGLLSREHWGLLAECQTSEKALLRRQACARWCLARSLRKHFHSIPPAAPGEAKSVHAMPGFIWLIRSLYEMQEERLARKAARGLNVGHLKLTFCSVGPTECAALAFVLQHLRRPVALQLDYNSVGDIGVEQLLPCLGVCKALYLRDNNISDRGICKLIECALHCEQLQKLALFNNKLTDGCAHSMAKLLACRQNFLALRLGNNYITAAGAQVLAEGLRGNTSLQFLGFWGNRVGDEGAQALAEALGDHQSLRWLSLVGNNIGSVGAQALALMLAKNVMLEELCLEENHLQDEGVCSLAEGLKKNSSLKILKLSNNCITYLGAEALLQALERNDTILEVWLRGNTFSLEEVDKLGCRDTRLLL
Test: NOD2-HEK-Blue NF-κB reporter cell activation assay (NOD2-expressing HEK-293T cells)
Format: cell-based
Settings: calculated, three-parameter dose-response nonlinear regression; read-out: pEC50 (μM), dose-dependent activation of NOD2-expressing HEK-293T cells (converted)
# label = true if EC50 < 3 µM else false

> print(dat)
                            chemical.smiles   cat
1  CCOC(=O)CC[C@@H](NC(=O)[C@@H](NC(=O)c1c(C)nn(-c2ccccc2)c1C)C(C)C)C(=O)OCC  true

Problem: Quick check: does CCOC(=O)CC[C@@H](NC(=O)[C@@H](NC(=O)c1cnn(-c2ccccc2O)c1C)C(C)C)C(=O)OCC have EC50 under 3 µM?
Solution: false

Problem: Quick check: does CCOC(=O)CC[C@@H](NC(=O)[C@@H](NC(=O)c1cnn(-c2ccc(F)cc2)c1C)C(C)C)C(=O)OCC have EC50 under 3 µM?
Solution: false

Problem: Quick check: does CCOC(=O)CC[C@@H](NC(=O)[C@@H](NC(=O)c1c(C)nn(-c2ccncc2)c1C)C(C)C)C(=O)OCC have EC50 under 3 µM?
Solution: false

Problem: Quick check: does CCOC(=O)CC[C@@H](NC(=O)[C@@H](NC(=O)c1cnn(-c2cccnc2)c1)C(C)C)C(=O)OCC have EC50 under 3 µM?
Solution: false

Problem: Quick check: does CCOC(=O)CC[C@@H](NC(=O)[C@@H](NC(=O)c1c(C)nn(-c2cc[nH]c(=O)c2)c1C)C(C)C)C(=O)OCC have EC50 under 3 µM?
Solution: true

Problem: Quick check: does CCOC(=O)CC[C@@H](NC(=O)[C@@H](NC(=O)c1c(C)nn(-c2ccc(N)nc2)c1C)C(C)C)C(=O)OCC have EC50 under 3 µM?
Solution: true

###

# EC50 per record follows
Biological target: NOD2 (Homo sapiens, UniProt Q9HC29)
Construct: host or cells: HEK-293T-derived HEK-Blue NF-kB/SEAP reporter cells
Assay: NOD2-HEK-Blue NF-κB reporter cell activation assay (NOD2-expressing HEK-293T cells)
Format: cell-based
Conditions: calculated, three-parameter dose-response nonlinear regression; read-out: pEC50 (μM), dose-dependent activation of NOD2-expressing HEK-293T cells (converted)
# unit: µM | format: bare number

Worked set:
> print(dat)
                                   molecule  unit.of.measurement  observed
1  CCOC(=O)CC[C@@H](NC(=O)[C@@H](NC(=O)c1c(C)nn(-c2ccc3[nH]ccc3c2)c1C)C(C)C)C(=O)OCC                   µM     0.251
2  CCOC(=O)CC[C@@H](NC(=O)[C@@H](NC(=O)c1c(C)nn(-c2ccc(OC)cc2)c1C)C(C)C)C(=O)OCC                   µM         2
3  CCOC(=O)CC[C@@H](NC(=O)[C@@H](NC(=O)C(C)Cc1ccc(F)c(F)c1)C(C)C)C(=O)OCC (mixture of isomers)                   µM     0.631
4  CCOC(=O)CC[C@@H](NC(=O)[C@@H](NC(=O)c1c(C)nn(-c2cnc3[nH]ccc3c2)c1C)C(C)C)C(=O)OCC                   µM     0.398

Problem: Param request: EC50 | system NOD2 (Homo sapiens, UniProt Q9HC29) | item CCOC(=O)CC[C@@H](NC(=O)[C@@H](NC(=O)c1cn(-c2ccc(C)cc2)nc1C)C(C)C)C(=O)OCC
Solution: 10

Problem: Param request: EC50 | system NOD2 (Homo sapiens, UniProt Q9HC29) | item CCOC(=O)CC[C@@H](NC(=O)[C@@H](NC(=O)c1c(C)nn(-c2ccccn2)c1C)C(C)C)C(=O)OCC
Solution: 1.58

Problem: Param request: EC50 | system NOD2 (Homo sapiens, UniProt Q9HC29) | item CCOC(=O)CC[C@@H](NC(=O)[C@@H](NC(=O)c1cnn(-c2ccncc2)c1C)C(C)C)C(=O)OCC
Solution: 79.4

Problem: Param request: EC50 | system NOD2 (Homo sapiens, UniProt Q9HC29) | item CCOC(=O)CC[C@@H](NC(=O)[C@@H](NC(=O)c1c(C)nn(-c2ccccc2OC)c1C)C(C)C)C(=O)OCC
Solution: 1.58

###

Target: NOD2 (Homo sapiens)
Construct: host or cells: HEK-293T-derived HEK-Blue NF-kB/SEAP reporter cells
Experiment: NOD2-HEK-Blue NF-κB reporter cell activation assay (NOD2-expressing HEK-293T cells)
Type: cell-based
Conditions: calculated, three-parameter dose-response nonlinear regression; read-out: pEC50 (μM), dose-dependent activation of NOD2-expressing HEK-293T cells (converted)
Category key, based on recorded EC50: bottom: < 1 µM; middle: ≥ 1 µM and < 3 µM; top: ≥ 3 µM

Illustrative cases are given below, each with its answer.
MOLECULE	TARGET ENTITY	CAT
CCOC(=O)CC[C@@H](NC(=O)[C@@H](NC(=O)c1c(C)nn(-c2ccc3cc[nH]c3c2)c1C)C(C)C)C(=O)OCC [TT025]	NOD2 (Homo sapiens)	bottom
CCOC(=O)CC[C@@H](NC(=O)[C@@H](NC(=O)c1cn(-c2ccc(F)cc2)nc1C)C(C)C)C(=O)OCC [TT011]	NOD2 (Homo sapiens)	top
CCOC(=O)CC[C@@H](NC(=O)[C@@H](NC(=O)c1cnn(-c2ccc(F)cc2)c1C(C)C)C(C)C)C(=O)OCC [TT012]	NOD2 (Homo sapiens)	top
CCOC(=O)CC[C@@H](NC(=O)[C@@H](NC(=O)C1(Cc2ccc(F)cc2)CCCC1)C(C)C)C(=O)OCC [TT003]	NOD2 (Homo sapiens)	bottom
CC(=O)N[C@H]1C(O)O[C@H](CO)[C@@H](O)[C@@H]1O[C@H](C)C(=O)N[C@@H](C)C(=O)N[C@H](CCC(=O)O)C(N)=O (some centres unmarked) [MDP, reference compound]	NOD2 (Homo sapiens)	bottom

From here, focus on the item given below.
Problem: Into which category would you place CCOC(=O)CC[C@@H](NC(=O)[C@@H](NC(=O)c1c(C)nn(-c2ccc(Cl)c(Cl)c2)c1C)C(C)C)C(=O)OCC [TT022] ?
Solution: middle

###

# log10(EC50) per record follows
Target: NOD2 (Homo sapiens, UniProt Q9HC29)
Construct: host or cells: HEK-293T-derived HEK-Blue NF-kB/SEAP reporter cells
Experiment: NOD2-HEK-Blue NF-κB reporter cell activation assay (NOD2-expressing HEK-293T cells)
Format: cell-based
Settings: calculated, three-parameter dose-response nonlinear regression; read-out: pEC50 (μM), dose-dependent activation of NOD2-expressing HEK-293T cells (converted)
Reminder: these figures are log10 of reported EC50, in µM before transformation.

> print(dat)
                                   compound                        target.entity  observed.property  observed
1  CCOC(=O)CC[C@@H](NC(=O)[C@@H](NC(=O)c1c(C)nn(-c2ccc(F)cc2)c1C)C(C)C)C(=O)OCC  NOD2 (Homo sapiens, UniProt Q9HC29)        log10(EC50)      0.00
2  CCOC(=O)CC[C@@H](NC(=O)[C@@H](NC(=O)c1c(C)nn(-c2ccc(Cl)cc2)c1C)C(C)C)C(=O)OCC  NOD2 (Homo sapiens, UniProt Q9HC29)        log10(EC50)      0.00
3  CCOC(=O)CC[C@@H](NC(=O)[C@@H](NC(=O)c1c(C)nn(-c2cncnc2)c1C)C(C)C)C(=O)OCC  NOD2 (Homo sapiens, UniProt Q9HC29)        log10(EC50)      0.40

Problem: Determine from records and report log10(EC50) for C#CCCC1(CC(=O)N[C@H](C(=O)N[C@H](CCC(=O)OCC)C(=O)OCC)C(C)C)N=N1
Solution: 0.20

Problem: Determine from records and report log10(EC50) for CCOC(=O)CC[C@@H](NC(=O)[C@@H](NC(=O)CNC(=O)/C=C/c1ccccc1)C(C)C)C(=O)OCC [CinGVE, reference compound]
Solution: 0.10

Problem: Determine from records and report log10(EC50) for CCOC(=O)CC[C@@H](NC(=O)[C@@H](NC(=O)c1c(C)nn(-c2cccc(OC)c2)c1C)C(C)C)C(=O)OCC
Solution: 0.40

Problem: Determine from records and report log10(EC50) for CCOC(=O)CC[C@@H](NC(=O)[C@@H](NC(=O)c1c(C)nn(-c2cccnc2)c1C)C(C)C)C(=O)OCC
Solution: 0.40

Problem: Determine from records and report log10(EC50) for CCOC(=O)CC[C@@H](NC(=O)[C@@H](NC(=O)c1c(C)nn(-c2ccc(NC(=O)OC(C)(C)C)nc2)c1C)C(C)C)C(=O)OCC
Solution: -0.80
